ASSAY OVERVIEW: self-splicing fitness, log relative to wild type (ln ratio); higher = more splicing; Tetrahymena group I intron in knt gene, E. coli kanamycin selection, DiMSum; sequences stand for … in CUCUCU…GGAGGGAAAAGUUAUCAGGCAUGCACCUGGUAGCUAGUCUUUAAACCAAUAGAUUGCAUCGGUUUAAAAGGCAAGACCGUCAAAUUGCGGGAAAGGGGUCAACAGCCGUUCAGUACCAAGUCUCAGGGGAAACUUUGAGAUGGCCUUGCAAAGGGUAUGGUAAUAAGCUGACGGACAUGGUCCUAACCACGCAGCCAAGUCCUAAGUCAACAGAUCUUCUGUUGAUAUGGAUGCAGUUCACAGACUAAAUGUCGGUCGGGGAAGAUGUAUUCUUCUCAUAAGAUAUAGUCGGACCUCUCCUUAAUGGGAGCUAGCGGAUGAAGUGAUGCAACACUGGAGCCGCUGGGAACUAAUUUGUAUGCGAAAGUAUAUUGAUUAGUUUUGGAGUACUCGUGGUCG;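 further: selection with 25 µg/mL kanamycin versus none on LB agar overnight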
TEST CONDITIONS: 30 °C
PROPERTY LABEL: self-splicing fitness (ln)
Please respond with just the number, no unit label.

Reference set, count: 5
CCGCAGCAAUAUUACGGGGG    -3.71
CGUUAGCAAUAUUACGGGGG    -4.81
AAAGAGCAAUAUUACGCCAG    -3.87
AACUAGCAAUAUUACGGAAU    -2.42
AGAAAGCAAUAUUACGGCUG    -0.141

# lookup: self-splicing fitness (ln) of CUCCAGCAAUAUUACGUGCA -3.43

# lookup: self-splicing fitness (ln) of UCGGAGCAAUAUUACGGUAC -3.19

====

ASSAY OVERVIEW: self-splicing fitness, log relative to wild type (ln ratio); higher = more splicing; Tetrahymena group I intron in knt gene, E. coli kanamycin selection, DiMSum; sequences stand for … in CUCUCU…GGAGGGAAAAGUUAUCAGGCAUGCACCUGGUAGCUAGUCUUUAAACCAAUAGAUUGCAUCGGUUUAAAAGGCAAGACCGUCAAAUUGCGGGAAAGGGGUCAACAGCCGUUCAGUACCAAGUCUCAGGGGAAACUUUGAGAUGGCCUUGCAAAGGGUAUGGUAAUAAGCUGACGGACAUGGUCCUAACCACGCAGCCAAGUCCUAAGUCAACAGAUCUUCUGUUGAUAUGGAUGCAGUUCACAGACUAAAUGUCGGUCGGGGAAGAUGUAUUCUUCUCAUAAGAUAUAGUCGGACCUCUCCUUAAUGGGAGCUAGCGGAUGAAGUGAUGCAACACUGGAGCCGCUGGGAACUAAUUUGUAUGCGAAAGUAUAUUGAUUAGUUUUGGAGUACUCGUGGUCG
TEST CONDITIONS: 30 °C
Quick reference: self-splicing fitness (ln) of the listed items.
Please respond with just the number, no unit label.

GACUAGCAAUAUUACGCGGC    -3.16

# lookup: self-splicing fitness (ln) of GCGGAGCAAUAUUACGGACA -1.62

# lookup: self-splicing fitness (ln) of GCAAAGCAAUAUUACGAUCG -1.52

# lookup: self-splicing fitness (ln) of GACGAGCAAUAUUACGCAGU -3.48

# lookup: self-splicing fitness (ln) of UAGAAGCAAUAUUACGCGCG -0.301

# lookup: self-splicing fitness (ln) of CACCAGCAAUAUUACGAUUA -2.82

# lookup: self-splicing fitness (ln) of UUUCAGCAAUAUUACGCAUC -2.79

# lookup: self-splicing fitness (ln) of AUGUAGCAAUAUUACGCCGU -1.43
